assay-target: human melanocortin 4 receptor (MC4R) (human, UniProt P32245 1-332)
Sequence (P32245 whole entry): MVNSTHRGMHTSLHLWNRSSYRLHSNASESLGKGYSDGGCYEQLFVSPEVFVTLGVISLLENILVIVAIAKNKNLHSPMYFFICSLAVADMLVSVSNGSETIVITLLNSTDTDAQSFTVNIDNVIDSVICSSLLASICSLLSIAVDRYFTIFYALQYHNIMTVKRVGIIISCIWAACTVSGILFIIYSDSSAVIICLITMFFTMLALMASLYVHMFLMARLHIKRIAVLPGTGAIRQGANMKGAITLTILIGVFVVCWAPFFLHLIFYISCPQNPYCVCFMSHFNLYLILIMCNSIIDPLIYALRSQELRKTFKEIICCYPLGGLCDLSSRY
assay-remarks: cell-based or functional assay
Positions of bridges follow the written chain, without caps; N, C: chain ends. Non-standard residues stand in square brackets, D forms with d. d2Nal = N[C@H](Cc1ccc2ccccc2c1)C(=O)O; Nle = CCCC[C@H](N)C(=O)O
quantity: IC50 (cAMP by HTRF, antagonist dose-response)

Input: Provide one value: measured IC50 (cAMP by HTRF, antagonist dose-response) of Ac-[Nle]DPH[d2Nal]RWK[dV][dP]-NH2 (lactam 2-8; SMILES CCCC[C@H](NC(C)=O)C(=O)N[C@H]1CC(=O)NCCCC[C@@H](C(=O)N[C@@H](C(=O)N2CCC[C@@H]2C(N)=O)C(C)C)NC(=O)[C@H](Cc2c[nH]c3ccccc23)NC(=O)[C@H](CCCNC(=N)N)NC(=O)[C@@H](Cc2ccc3ccccc3c2)NC(=O)[C@H](Cc2c[nH]cn2)NC(=O)[C@@H]2CCCN2C1=O) [D1]
Output: > 10 µM

Hey, just so you know, these numbers are from patent US20260098072A1.
